The values you see were collected from ChEMBL document CHEMBL1150979.

Collected pKi values appear next to each entry.
Biological target: Plasminogen (Homo sapiens, UniProt P00747)
Sequence (P00747 97-580 limits assumed): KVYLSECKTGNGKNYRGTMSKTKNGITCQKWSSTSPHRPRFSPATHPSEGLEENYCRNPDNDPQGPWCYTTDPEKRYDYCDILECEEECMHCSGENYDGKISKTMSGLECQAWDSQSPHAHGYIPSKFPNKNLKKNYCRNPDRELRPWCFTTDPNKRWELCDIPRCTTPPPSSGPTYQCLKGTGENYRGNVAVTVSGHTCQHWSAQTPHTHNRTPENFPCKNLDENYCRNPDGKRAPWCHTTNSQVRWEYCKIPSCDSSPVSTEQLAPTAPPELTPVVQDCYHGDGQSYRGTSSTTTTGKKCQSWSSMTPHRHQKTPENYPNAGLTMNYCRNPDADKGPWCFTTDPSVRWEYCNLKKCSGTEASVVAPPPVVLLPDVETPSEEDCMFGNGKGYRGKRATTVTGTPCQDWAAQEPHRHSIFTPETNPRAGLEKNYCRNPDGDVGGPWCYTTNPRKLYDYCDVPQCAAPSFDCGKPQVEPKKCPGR
Sequence (P00747 581-810 limits assumed): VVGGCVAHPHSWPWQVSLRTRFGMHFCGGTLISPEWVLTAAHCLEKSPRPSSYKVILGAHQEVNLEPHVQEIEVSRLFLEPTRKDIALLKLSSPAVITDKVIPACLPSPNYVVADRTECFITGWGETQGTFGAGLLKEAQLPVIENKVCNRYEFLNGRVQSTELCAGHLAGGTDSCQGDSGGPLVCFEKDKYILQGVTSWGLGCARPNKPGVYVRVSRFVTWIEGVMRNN
Assay: Tested for the Inhibition of the catalytic activity of human plasmin at 25 degree C and pH 7.5.
pKi: −log10 of the molar value.

- molecule: "O=S(=O)(NCCc1cccc(OCCNc2ccncc2)c1)c1ccc(Cl)cc1"
  pKi: "< 3.30"

-- ask Indicate its recorded pKi; the molecule in question is `CN(c1cccc(OCCNc2ccncc2)c1)S(=O)(=O)c1ccccc1`
-- reply < 3.30

-- ask Indicate its recorded pKi; the molecule in question is Nc1ccncc1 [DALFAMPRIDINE]
-- reply < 2.70

-- ask Indicate its recorded pKi; the molecule in question is `c1ccc(OCCNc2ccncc2)cc1`
-- reply < 3.30

-- ask Indicate its recorded pKi; the molecule in question is `O=C(CNS(=O)(=O)c1ccc(Cl)cc1)N[C@H](CCNc1ccncc1)C(=O)N1CCCCC1`
-- reply < 3.30
